The values you see were collected from patent US9618524B2.

- measuredTarget: T1, alpha-synuclein plaque particles (Homo sapiens, UniProt P37840)
- T1 construct: 140 amino acids polypeptide
- protocolText: Mass spectroscopy proteomics, semi-quantitative binding affinity of serum proteins (plaqueproteome, Table 2)
- assaySetup: higher number = stronger affinity
quantityName: Semi-quantitative analysis of proteins binding to different plaque particles: Synuclein

molecule | valueReported
Leucine-rich alpha-2-glycoprotein (protein) VTLSPKDCQVFRSDHGSSISCQPPAEIPGYLPADTVHLAVEFFNLTHLPANLLQGASKLQELHLSSNGLESLSPEFLRPVPQLRVLDLTRNALTGLPPGLFQASATLDTLVLKENQLEVLEVSWLHGLKALGHLDLSGNRLRKLPPGLLANFTLLRTLDLGENQLETLPPDLLRGPLQLERLHLEGNKLQVLGKDLLLPQPDLRYLFLNGNKLARVAAGAFQGLRQLDMLDLSNNSLASVPEGLWASLGQPNWDMRDGFDISGNPWICDQNLSDLYRWLQAQKDKMFSQNDTRCAGPEAVKGQTLLAVAKSQ | 2
